test: Blood brain barrier test: tissue concentration after iv injection; assay type: in vivo, Mouse; settings: liver; Mouse 2, iv 10 mg/kg in DMSO, after 20 minutes; read-out: Concentration, Liver
valueType: concentration at 20 min (ng/g)
Answers are plain numbers, in ng/g.

**Q:** Please give the measured concentration at 20 min for this compound: `O=C(NO)c1ccc(CN2CCc3ccc(Cl)cc32)cc1`
**A:** 1030

----------
target: HDAC5 (Homo sapiens, UniProt Q9UQL6); assay: HDAC5 isoform selectivity assay; format: biochemical; conditions: Table 2 isoform selectivity; read-out: HDAC Inhibition (IC50 uM) isoform 5
Sequence (Q9UQL6 whole entry, canonical isoform): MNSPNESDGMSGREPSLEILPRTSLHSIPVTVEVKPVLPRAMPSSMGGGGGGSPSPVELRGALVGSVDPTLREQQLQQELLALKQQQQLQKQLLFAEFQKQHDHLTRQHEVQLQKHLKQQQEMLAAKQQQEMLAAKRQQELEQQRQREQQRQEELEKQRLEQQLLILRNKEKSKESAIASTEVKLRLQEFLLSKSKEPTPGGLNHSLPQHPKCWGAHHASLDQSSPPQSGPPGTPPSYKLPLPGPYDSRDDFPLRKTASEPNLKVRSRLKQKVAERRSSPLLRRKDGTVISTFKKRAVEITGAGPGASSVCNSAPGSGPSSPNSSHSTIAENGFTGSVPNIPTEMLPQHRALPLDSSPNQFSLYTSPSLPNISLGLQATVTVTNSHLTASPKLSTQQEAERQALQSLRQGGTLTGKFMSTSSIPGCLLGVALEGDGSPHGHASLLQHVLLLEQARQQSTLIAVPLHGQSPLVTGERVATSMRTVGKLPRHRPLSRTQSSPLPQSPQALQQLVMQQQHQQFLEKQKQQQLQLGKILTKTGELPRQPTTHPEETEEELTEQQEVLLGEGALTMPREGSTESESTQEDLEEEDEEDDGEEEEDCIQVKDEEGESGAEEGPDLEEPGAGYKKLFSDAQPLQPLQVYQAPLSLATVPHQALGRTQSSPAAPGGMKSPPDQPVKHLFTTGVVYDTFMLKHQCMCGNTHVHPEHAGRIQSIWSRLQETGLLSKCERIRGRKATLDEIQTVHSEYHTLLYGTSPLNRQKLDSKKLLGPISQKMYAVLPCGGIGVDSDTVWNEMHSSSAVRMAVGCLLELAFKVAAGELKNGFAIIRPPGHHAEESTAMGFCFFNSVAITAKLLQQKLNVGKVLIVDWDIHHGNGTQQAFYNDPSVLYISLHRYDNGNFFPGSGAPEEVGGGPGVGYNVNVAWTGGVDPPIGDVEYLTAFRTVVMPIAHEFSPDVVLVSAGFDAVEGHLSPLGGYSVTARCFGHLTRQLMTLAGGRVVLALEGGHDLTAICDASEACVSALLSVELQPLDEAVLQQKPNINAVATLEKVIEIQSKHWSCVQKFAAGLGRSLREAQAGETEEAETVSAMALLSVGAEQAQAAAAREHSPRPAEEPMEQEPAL
Exercise: for every item that follows, state its recorded IC50.
Numbers only, in µM.

smilesnotation=O=C(NO)c1ccc(CN2CCc3ccc(Cl)cc32)cc1 datavalue=2.7
smilesnotation=O=C(NO)c1ccc(CN2CCc3ccc(F)cc32)cc1 datavalue=1.39

// below: IC50 requested for another compound
**Q:** Please give the measured IC50 for this compound: `Cn1c(NCc2ccc(C(=O)NO)cc2)nc2ccccc21`
**A:** 1.96

----------
molecular target: Human HDAC6 (Homo sapiens, UniProt Q9UBN7); construct: Full length with N-terminal GST tag, MW=159 kDa; GST (N); host or cells: Sf9 insect cells (baculovirus); test: HDAC6 inhibition assay (fluorogenic p53 peptide substrate); type: biochemical; conditions: Table 1; performed by Reaction Biology Corporation; read-out: HDAC isoform IC50 (nM) 6
Sequence (Q9UBN7 whole entry, canonical isoform): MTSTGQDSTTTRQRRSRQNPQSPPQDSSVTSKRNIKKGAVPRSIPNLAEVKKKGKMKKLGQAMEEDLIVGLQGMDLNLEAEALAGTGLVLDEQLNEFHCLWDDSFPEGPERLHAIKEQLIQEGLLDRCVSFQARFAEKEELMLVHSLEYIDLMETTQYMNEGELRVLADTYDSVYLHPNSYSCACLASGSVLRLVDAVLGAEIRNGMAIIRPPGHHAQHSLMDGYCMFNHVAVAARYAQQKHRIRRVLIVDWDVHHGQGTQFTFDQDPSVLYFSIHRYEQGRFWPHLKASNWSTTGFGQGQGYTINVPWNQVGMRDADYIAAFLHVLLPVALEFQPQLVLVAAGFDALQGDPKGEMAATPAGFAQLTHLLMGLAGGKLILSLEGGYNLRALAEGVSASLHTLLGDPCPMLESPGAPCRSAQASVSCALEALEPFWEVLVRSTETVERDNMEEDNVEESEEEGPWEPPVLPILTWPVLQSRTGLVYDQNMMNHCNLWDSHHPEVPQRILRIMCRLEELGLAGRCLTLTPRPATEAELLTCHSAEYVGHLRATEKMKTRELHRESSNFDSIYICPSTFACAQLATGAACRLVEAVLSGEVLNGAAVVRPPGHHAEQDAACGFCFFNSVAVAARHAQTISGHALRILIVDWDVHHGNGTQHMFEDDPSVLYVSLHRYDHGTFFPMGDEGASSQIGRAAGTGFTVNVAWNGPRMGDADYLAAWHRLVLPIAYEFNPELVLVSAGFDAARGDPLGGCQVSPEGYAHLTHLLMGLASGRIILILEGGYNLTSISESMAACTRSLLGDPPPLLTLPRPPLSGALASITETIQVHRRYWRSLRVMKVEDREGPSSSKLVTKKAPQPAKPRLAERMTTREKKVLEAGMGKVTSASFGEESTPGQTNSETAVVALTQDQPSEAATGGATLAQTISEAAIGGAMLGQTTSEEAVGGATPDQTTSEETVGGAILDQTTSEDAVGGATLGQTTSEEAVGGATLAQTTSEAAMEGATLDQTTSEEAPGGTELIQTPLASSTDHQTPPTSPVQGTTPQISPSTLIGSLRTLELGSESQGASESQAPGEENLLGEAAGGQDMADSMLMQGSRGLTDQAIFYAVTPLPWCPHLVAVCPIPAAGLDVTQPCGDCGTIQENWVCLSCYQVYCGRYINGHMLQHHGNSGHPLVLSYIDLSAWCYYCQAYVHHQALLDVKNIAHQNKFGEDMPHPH
Exercise: for every item that follows, state its recorded IC50.
Please provide the amount together with its unit, number first.

compound="CC1(C)CN(Cc2ccc(C(=O)NO)cc2)c2ccccc21 [II-ING-65]" valuetype=IC50 datavalue="24.5 nM"
compound="O=C(NO)c1ccc(CN2CCc3ccc(OCc4ccccc4)cc32)cc1 [II-ING-61]" valuetype=IC50 datavalue="25.2 nM"
compound="O=C(NO)c1ccc(CN2CCc3cc([N+](=O)[O-])ccc32)cc1 [II-ING-57]" valuetype=IC50 datavalue="1.4 nM"
compound="Cn1c(NCc2ccc(C(=O)NO)cc2)nc2cc(Cl)ccc21 [II-ING-85]" valuetype=IC50 datavalue="2.7 nM"
compound="O=C(NO)c1ccc(CN2CCc3cc(F)c(Cl)cc32)cc1 [II-ING-56]" valuetype=IC50 datavalue="4.6 nM"
compound="O=C(NO)c1ccc(CN2CCc3ccccc32)cc1 [II-ING-44]" valuetype=IC50 datavalue="26.8 nM"

**Q:** Record lookup: for Human HDAC6 (Homo sapiens, UniProt Q9UBN7), what IC50 belongs to Cn1c(NCc2ccc(C(=O)NO)cc2)nc2ccccc21 [II-ING-13] ?
**A:** 11 nM
